Tested on: A549 NSCLC
Experiment: NCI tumour cell line growth inhibition, 48 h
# reported TGI; entries follow

See these solved cases before continuing.
Cc1cccc(C)c1NC(=O)C(Cc1c[nH]c2ccccc12)NC(=O)OCc1ccccc1 (configuration not stated)	46.6 µM
Cc1c(N(C)C)ccc2c(=O)c3cccc(CC(=O)O)c3oc12	> 100 µM
Clc1ccc(-c2nnc3sc4nc5ccccc5c-4nn23)c(Cl)c1	> 100 µM
O=C(O)CN1CCNCCN(CC(=O)O)CCN(CC(=O)O)CCNCC1	> 100 µM
CCOC(=O)c1cccc(N=Nc2nc[nH]c2/C=C/C(=O)OC)c1	> 100 µM
CC(C)C1=Cc2ccc3c(c2C(=O)C1=O)CCCC3(C)C	34.8 µM
CC1OC(c2ccc3c(OCc4ccccc4)cccc3c2O)CC(OCc2ccccc2)[C@H]1OCc1ccccc1 (some centres not stated)	> 10 µM
N#C/C(=C\c1ccc2ccccc2c1)C(=O)c1ccccc1	> 100 µM
O=C1NC(N2CCOCC2)=N/C1=C\c1ccco1	> 100 µM
CCN(CC)CCNc1nc(N)c(C#N)c(C#N)c1C#N	> 10 µM

Moving on to another compound below.
Reported TGI, compound O=C(Cc1ccc(F)c(Cl)c1)Nc1cc(C2(C(F)(F)F)CC2)nn1CC1CCCCC1 : ____
> 15 µM
